Tested on: 184A1
Assay: area over the GR curve, 72 h; higher = more effect
assay-readout: area over the GR curve
Numeric answer plus unit only.

Here are 5 molecules together with their reported answers.
molecule	test-system	area over the GR curve
CO[C@H]1C[C@@H]2CC[C@@H](C)[C@@](O)(O2)C(=O)C(=O)N2CCCC[C@H]2C(=O)O[C@H]([C@H](C)C[C@@H]2CC[C@@H](OCCO)[C@H](OC)C2)CC(=O)[C@H](C)/C=C(\C)[C@@H](O)[C@@H](OC)C(=O)[C@H](C)C[C@H](C)/C=C/C=C/C=C/1C [Everolimus] (max 10 µM)	184A1	0.452 GR
COc1cccc2c1C(=O)c1c(O)c3c(c(O)c1C2=O)C[C@@](O)(C(=O)CO)C[C@@H]3O[C@H]1C[C@H](N)[C@H](O)[C@H](C)O1 [Doxorubicin] (max 3.162 µM)	184A1	0.706 GR
Cc1cc(Nc2ncc(Cl)c(Nc3ccccc3S(=O)(=O)C(C)C)n2)c(OC(C)C)cc1C1CCNCC1 [Ceritinib/LDK378] (max 10 µM)	184A1	0.347 GR
CCNC(=O)c1noc(-c2cc(C(C)C)c(O)cc2O)c1-c1ccc(CN2CCOCC2)cc1 [Luminespib/NVP-AUY922] (max 1 µM)	184A1	0.539 GR
CN(C)C/C=C/C(=O)Nc1ccc(O[C@@H]2CCC[C@@H](Nc3ncc(Cl)c(-c4c[nH]c5ccccc45)n3)C2)cc1 [BSJ-01-175] (max 10 µM)	184A1	1.15 GR

Query molecule follows.
Provide the documented area over the GR curve with 184A1 as the system for CCCCOc1c(C(=O)c2c(F)cc(C)cc2F)c[nH]c2nncc1-2 (max 10 µM)
0.954 GR

---

Test system: CAL851
Test: area over the GR curve, 72 h; higher = more effect
Could you label it True if measured area over the GR curve is 0.2 GR or higher, and False otherwise?

compound	class
COc1cc2c(Oc3ccc4[nH]c(C)cc4c3F)ncnc2cc1OCCCN1CCCC1 [Cediranib/AZD2171] (max 10 µM)	False

Shifting focus to the compound that follows.
Textbook exercise: given the entry Cc1nc(NC(=O)N2CCC[C@H]2C(N)=O)sc1-c1ccnc(C(C)(C)C(F)(F)F)c1 [Alpelisib/BYL719] (max 10 µM) , state whether its area over the GR curve is greater than or equal to 0.2 GR.
False

---

Tested on: SUM52PE
Assay: area over the GR curve, 72 h; higher = more effect
Use area over the GR curve to assign classes; range list: class A: < 0.1 GR; class B: ≥ 0.1 GR and < 0.3 GR; class C: ≥ 0.3 GR

Sample answers from the record:
molecule	class
CCOc1cc2ncc(C#N)c(Nc3ccc(OCc4ccccn4)c(Cl)c3)c2cc1NC(=O)/C=C/CN(C)C [Neratinib/HKI272] (max 3.162 µM)	class A
CN(C)C/C=C/C(=O)Nc1ccc(C(=O)Nc2cccc(Nc3ncc(Cl)c(-c4c[nH]c5ccccc45)n3)c2)cc1 [THZ1] (max 1 µM)	class C
C=CC(=O)Nc1ccc(C(=O)Nc2[nH]nc3c2CN(C(=O)N[C@H](CN(C)C)c2ccccc2)C3(C)C)cc1 [YKL-5-124] (max 10 µM)	class C
CN1CCN(CCOc2cc(OC3CCOCC3)c3c(Nc4c(Cl)ccc5c4OCO5)ncnc3c2)CC1 [Saracatinib/AZD0530] (max 10 µM)	class A
CC(=O)c1c(C)c2cnc(Nc3ccc(N4CCNCC4)cn3)nc2n(C2CCCC2)c1=O (max 3.162 µM)	class B

Shifting focus to the molecule that follows.
# bin lookup: classify O=C1NC(=NCc2cccs2)SC1=Cc1ccc2ncccc2c1 [R0-3306] (max 10 µM) by its area over the GR curve
class A

---

Tested on: BT474
Assay: GRmax, 72 h; higher = less effect;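 further: breast cell lines in 384-well plates, nine doses across a 10^4 range, Dye Drop imaging of viable cells vs DMSO and time-zero plates, GR 0 means no net growth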
Each item that follows carries a reported GRmax, 72 h.
Numeric answer plus unit only.

Here are 3 molecules together with their reported answers.
>>> df
                                   molecule  test_system  assay_readout  measured_result
0  Cc1nc(-c2cn3c(n2)-c2ccc(-c4cnn(C(C)(C)C(N)=O)c4)cc2OCC3)n(C(C)C)n1 [Taselisib/GDC0032] (max 10 µM)        BT474    GRmax, 72 h        -0.989 GR
1  CCc1cncnc1N1CCN(Cc2nc3ccc(C(F)(F)F)cc3[nH]2)CC1 (max 10 µM)        BT474    GRmax, 72 h         0.508 GR
2  CS(=O)(=O)N1CCN(Cc2cc3nc(-c4cccc5[nH]ncc45)nc(N4CCOCC4)c3s2)CC1 [Pictilisib/GDC0941] (max 10 µM)        BT474    GRmax, 72 h        -0.828 GR

Query molecule follows.
Which measured GRmax, 72 h value corresponds to CN(C)C(=O)c1cc2cnc(Nc3ccc(N4CCNCC4)cn3)nc2n1C1CCCC1 [LEE011/Ribociclib] (max 10 µM) ?
0.583 GR

---

System: CAMA1
Assay: area over the GR curve, 72 h; higher = more effect
Could you label it true if measured area over the GR curve is 0.4 GR or higher, and false otherwise?

compound	class
C=CC(=O)Nc1ccc(C(=O)Nc2[nH]nc3c2CN(C(=O)N[C@H](CN(C)C)c2ccccc2)C3(C)C)cc1 [YKL-5-124] (max 10 µM)	true

Textbook exercise: given the entry CNc1nc(-c2ccc3c(N)n[nH]c3c2)cc(N2C[C@@H](C(=O)NC3CCCCC3)CC[C@H]2C)n1 (max 10 µM) , state whether its area over the GR curve is greater than or equal to 0.4 GR.
false

Textbook exercise: given the entry CN1CCN(C(=O)c2ccc3cc(CCNc4ncnc5ccc(C#N)cc45)ccc3c2)CC1 [senexin b] (max 10 µM) , state whether its area over the GR curve is greater than or equal to 0.4 GR.
false

Textbook exercise: given the entry CC[C@@H]1C(=O)N(C)c2cnc(Nc3ccc(C(=O)N[C@H]4CC[C@H](N5CCN(CC6CC6)CC5)CC4)cc3OC)nc2N1C(C)C [Volasertib/BI6727] (max 1 µM) , state whether its area over the GR curve is greater than or equal to 0.4 GR.
true

Textbook exercise: given the entry NC1(C(=O)N[C@@H](CCO)c2ccc(Cl)cc2)CCN(c2nc[nH]c3nccc2-3)CC1 [AZD5363] (max 10 µM) , state whether its area over the GR curve is greater than or equal to 0.4 GR.
true

Textbook exercise: given the entry Cc1nc(-c2cn3c(n2)-c2ccc(-c4cnn(C(C)(C)C(N)=O)c4)cc2OCC3)n(C(C)C)n1 [Taselisib/GDC0032] (max 10 µM) , state whether its area over the GR curve is greater than or equal to 0.4 GR.
false

Textbook exercise: given the entry CC[C@@]1(O)C(=O)OCc2c1cc1n(c2=O)Cc2cc3c(CN(C)C)c(O)ccc3nc2-1 [Topotecan] (max 10 µM) , state whether its area over the GR curve is greater than or equal to 0.4 GR.
true

Textbook exercise: given the entry COc1cc([C@@H]2c3cc4c(cc3[C@@H](O[C@@H]3O[C@@H]5CO[C@@H](C)O[C@H]5[C@H](O)[C@H]3O)[C@H]3COC(=O)[C@H]23)OCO4)cc(OC)c1O [Etoposide] (max 10 µM) , state whether its area over the GR curve is greater than or equal to 0.4 GR.
true

Textbook exercise: given the entry CC(=O)Nc1cccc(-n2c(=O)n(C3CC3)c(=O)c3c(Nc4ccc(I)cc4F)n(C)c(=O)c(C)c32)c1 (max 1 µM) , state whether its area over the GR curve is greater than or equal to 0.4 GR.
false

Textbook exercise: given the entry CC(=O)c1c(C)c2cnc(Nc3ccc(N4CCN(CCOCCOCCOCCNC(=O)COc5cccc6c5C(=O)N(C5CCC(=O)NC5=O)C6=O)CC4)cn3)nc2n(C2CCCC2)c1=O (stereo unspecified) [BSJ-03-123] (max 10 µM) , state whether its area over the GR curve is greater than or equal to 0.4 GR.
true

Textbook exercise: given the entry CCOc1cc2ncc(C#N)c(Nc3ccc(OCc4ccccn4)c(Cl)c3)c2cc1NC(=O)/C=C/CN(C)C [Neratinib/HKI272] (max 3.162 µM) , state whether its area over the GR curve is greater than or equal to 0.4 GR.
false

---

Tested on: MDAMB330
Test: area over the GR curve, 72 h; higher = more effect;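 further: Dye Drop or Deep Dye Drop imaging of viable cells in 384-well plates (Hoechst nuclei, LIVE/DEAD dye), nine half-log doses, GR normalized to DMSO controls and time-zero plates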
Could you label it Fulfilled if measured area over the GR curve is 0.4 GR or higher, and Not fulfilled otherwise?

compound	class
CC(=O)c1c(C)c2cnc(Nc3ccc(N4CCN(CCOCCOCCOCCNC(=O)COc5cccc6c5C(=O)N(C5CCC(=O)NC5=O)C6=O)CC4)cn3)nc2n(C2CCCC2)c1=O (centres undefined) [BSJ-03-123] (max 10 µM)	Fulfilled
CN(C)C/C=C/C(=O)Nc1ccc(C(=O)N2CCC[C@@H](Nc3ncc(Cl)c(-c4c[nH]c5ccccc45)n3)C2)cc1 [THZ531] (max 1 µM)	Fulfilled
CCc1cncnc1N1CCN(Cc2nc3ccc(C(F)(F)F)cc3[nH]2)CC1 (max 10 µM)	Not fulfilled
CO[C@@H](C)Cn1c(=O)n(C)c2cnc3ccc(-c4cncc(C(C)(C)O)c4)cc3c21 (max 10 µM)	Fulfilled
CCNC(=O)c1noc(-c2cc(C(C)C)c(O)cc2O)c1-c1ccc(CN2CCOCC2)cc1 [Luminespib/NVP-AUY922] (max 1 µM)	Fulfilled
COc1cc2nccc(Oc3ccc(NC(=O)C4(C(=O)Nc5ccc(F)cc5)CC4)cc3)c2cc1OC [Cabozantinib] (max 10 µM)	Not fulfilled
Cc1nc(-c2cn3c(n2)-c2ccc(-c4cnn(C(C)(C)C(N)=O)c4)cc2OCC3)n(C(C)C)n1 [Taselisib/GDC0032] (max 10 µM)	Fulfilled
CN(C)C(=O)c1cc2cnc(Nc3ccc(N4CCNCC4)cn3)nc2n1C1CCCC1 [LEE011/Ribociclib] (max 10 µM)	Fulfilled

Textbook exercise: given the entry CC(C)n1nc(-c2ccc3oc(N)nc3c2)c2c(N)ncnc21 [INK128/MLN0128] (max 3.162 µM) , state whether its area over the GR curve is greater than or equal to 0.4 GR.
Fulfilled

Textbook exercise: given the entry CC1(N)CCN(c2cnc(-c3cccc(Cl)c3Cl)c(N)n2)CC1 [SHP099] (max 10 µM) , state whether its area over the GR curve is greater than or equal to 0.4 GR.
Not fulfilled

Textbook exercise: given the entry Cc1nc(NC(=O)N2CCC[C@H]2C(N)=O)sc1-c1ccnc(C(C)(C)C(F)(F)F)c1 [Alpelisib/BYL719] (max 10 µM) , state whether its area over the GR curve is greater than or equal to 0.4 GR.
Not fulfilled

Textbook exercise: given the entry NC1(C(=O)N[C@@H](CCO)c2ccc(Cl)cc2)CCN(c2nc[nH]c3nccc2-3)CC1 [AZD5363] (max 10 µM) , state whether its area over the GR curve is greater than or equal to 0.4 GR.
Fulfilled

Textbook exercise: given the entry CNC(=O)c1cccc(-c2ccc3c(N4CCOC[C@@H]4C)nc(N4CCOC[C@@H]4C)nc3n2)c1 [AZD2014] (max 10 µM) , state whether its area over the GR curve is greater than or equal to 0.4 GR.
Fulfilled

Textbook exercise: given the entry CN(C)C/C=C/C(=O)Nc1ccc(C(=O)Nc2cccc(Nc3ncc(Cl)c(-c4c[nH]c5ccccc45)n3)c2)cc1 [THZ1] (max 1 µM) , state whether its area over the GR curve is greater than or equal to 0.4 GR.
Fulfilled
